# testSystem: NMDA Receptor (NR1/NR2B Receptor) (Rattus norvegicus, UniProt P35439+Q00960)
# Construct: this was used as a membrane specimen in an experiment; from tissue; host or cells: rat cerebral cortex membranes
# Sequence (Q00960 27-1482, other chains not shown): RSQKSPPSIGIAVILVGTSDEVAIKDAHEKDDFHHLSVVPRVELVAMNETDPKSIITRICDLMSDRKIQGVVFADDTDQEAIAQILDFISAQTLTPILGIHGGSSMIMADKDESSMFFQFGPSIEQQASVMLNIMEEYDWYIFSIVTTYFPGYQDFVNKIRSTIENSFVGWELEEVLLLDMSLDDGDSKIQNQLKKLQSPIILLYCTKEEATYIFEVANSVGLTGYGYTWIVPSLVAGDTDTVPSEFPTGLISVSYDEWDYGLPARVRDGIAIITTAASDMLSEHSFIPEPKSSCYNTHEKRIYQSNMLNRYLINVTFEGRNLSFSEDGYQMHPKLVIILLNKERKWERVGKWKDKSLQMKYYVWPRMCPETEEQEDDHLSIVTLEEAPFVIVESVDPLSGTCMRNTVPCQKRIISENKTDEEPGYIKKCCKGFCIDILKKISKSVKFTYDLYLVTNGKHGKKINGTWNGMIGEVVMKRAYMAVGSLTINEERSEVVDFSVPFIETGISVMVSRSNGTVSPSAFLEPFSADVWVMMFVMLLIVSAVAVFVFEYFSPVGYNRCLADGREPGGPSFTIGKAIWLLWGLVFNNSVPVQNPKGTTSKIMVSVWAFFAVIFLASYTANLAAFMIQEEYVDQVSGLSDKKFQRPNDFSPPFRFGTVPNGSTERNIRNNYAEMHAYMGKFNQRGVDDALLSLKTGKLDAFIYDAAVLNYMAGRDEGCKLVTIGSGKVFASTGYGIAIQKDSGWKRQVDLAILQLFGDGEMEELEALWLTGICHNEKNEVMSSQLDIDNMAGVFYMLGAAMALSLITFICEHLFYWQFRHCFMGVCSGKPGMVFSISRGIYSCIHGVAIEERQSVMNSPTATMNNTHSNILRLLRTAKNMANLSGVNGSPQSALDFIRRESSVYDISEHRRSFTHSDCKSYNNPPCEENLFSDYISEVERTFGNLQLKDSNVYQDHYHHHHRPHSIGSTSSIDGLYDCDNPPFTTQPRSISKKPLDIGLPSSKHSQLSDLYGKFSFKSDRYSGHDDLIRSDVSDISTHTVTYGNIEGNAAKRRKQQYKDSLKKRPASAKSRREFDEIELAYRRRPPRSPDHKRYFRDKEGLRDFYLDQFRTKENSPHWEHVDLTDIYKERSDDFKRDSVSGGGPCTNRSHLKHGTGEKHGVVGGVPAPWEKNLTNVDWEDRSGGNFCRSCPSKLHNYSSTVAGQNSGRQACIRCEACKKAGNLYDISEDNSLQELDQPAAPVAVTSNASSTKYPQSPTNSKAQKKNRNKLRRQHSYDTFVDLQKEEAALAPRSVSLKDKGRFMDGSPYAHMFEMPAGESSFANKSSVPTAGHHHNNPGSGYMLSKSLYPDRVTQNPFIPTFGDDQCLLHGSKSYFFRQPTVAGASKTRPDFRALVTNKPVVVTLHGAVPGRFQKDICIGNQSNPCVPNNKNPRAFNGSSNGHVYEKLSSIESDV
# assayMethodText: Experiment of binding to NMDA receptor (NR1/NR2B receptor), [3H]-Ifenprodil competition, rat cerebral cortex membrane
# conditionDescription: [3H]-Ifenprodil 5 nM, GBR-12909 3 μM, ice temperature 120 minutes
measuredEndpoint: IC50 (µM)

[[record]]
compound = "O=C(CNc1ccc2[nH]c(=O)oc2c1)N1CCN(c2ccc(Cl)c(F)c2)CC1 [Compound I-1]"
measuredendpoint = "IC50"
assayvalue = 0.149

[[record]]
compound = "C[C@@H]1CN(CC(=O)Nc2ccc3[nH]c(=O)oc3c2)CCN1c1ccc(Cl)c(F)c1 [Compound I-55]"
measuredendpoint = "IC50"
assayvalue = 0.033

[[record]]
compound = "Cc1cc(N2CCN(CC(=O)Nc3ccc4[nH]c(=O)oc4c3)C[C@H]2C)ccc1Cl [Compound I-60]"
measuredendpoint = "IC50"
assayvalue = 0.08

[[record]]
compound = "O=C(NCCN1CCN(c2ccc(Cl)cc2)CC1)c1ccc2[nH]c(=O)oc2c1 [Compound I-65]"
measuredendpoint = "IC50"
assayvalue = 0.026

[[record]]
compound = "CC[C@@H]1CN(c2ccc(Cl)cc2)CCN1C(=O)C(=O)Nc1ccc2[nH]c(=O)oc2c1 [Compound I-52]"
measuredendpoint = "IC50"
assayvalue = 0.081

[[record]]
compound = "C[C@@H]1CN(c2ccc(OCC(F)(F)F)cc2)CCN1C(=O)C(=O)Nc1ccc2[nH]c(=O)oc2c1 [Compound I-24]"
measuredendpoint = "IC50"
assayvalue = 0.105

[[record]]
compound = "C[C@@H]1CN(CC(=O)Nc2ccc3[nH]c(=O)oc3c2)CCN1c1ccc(Cl)cc1 [Compound I-59]"
measuredendpoint = "IC50"
assayvalue = 0.042

[[record]]
compound = "Cc1ccc(N2CCN(C(=O)C(=O)Nc3ccc4[nH]c(=O)oc4c3)C[C@H]2C)cc1F [Compound I-28]"
measuredendpoint = "IC50"
assayvalue = 0.068

[[record]]
compound = "Cc1ccc(N2CCN(C(=O)C(=O)Nc3ccc4[nH]c(=O)oc4c3)CC2)cc1Cl [Compound I-35]"
measuredendpoint = "IC50"
assayvalue = 0.02

[[record]]
compound = "C[C@@H]1CN(c2ccc(Cl)cc2)CCN1C(=O)CNc1ccc2[nH]c(=O)oc2c1 [Compound I-15]"
measuredendpoint = "IC50"
assayvalue = 0.039

[[record]]
compound = "Cc1ccc(N2CCN(C(=O)C(=O)Nc3ccc4[nH]c(=O)oc4c3)CC2)cc1 [Compound I-18]"
measuredendpoint = "IC50"
assayvalue = 0.107

[[record]]
compound = "Cc1cc(N2CCN(C(=O)C(=O)Nc3ccc4[nH]c(=O)oc4c3)[C@H](C)C2)ccc1Cl [Compound I-40]"
measuredendpoint = "IC50"
assayvalue = 0.04

[[record]]
compound = "Cc1cc(N2CCN(C(=O)C(=O)Nc3ccc4[nH]c(=O)oc4c3)C[C@H]2C)ccc1Cl [Compound I-41]"
measuredendpoint = "IC50"
assayvalue = 0.067

[[record]]
compound = "C[C@@H]1CN(C(=O)CNc2ccc3[nH]c(=O)oc3c2)CCN1c1ccc(Cl)c(F)c1 [Compound I-17]"
measuredendpoint = "IC50"
assayvalue = 0.024

[[record]]
compound = "Cc1ccc(N2CCN(C(=O)C(=O)Nc3ccc4[nH]c(=O)oc4c3)CC2)cc1F [Compound I-26]"
measuredendpoint = "IC50"
assayvalue = 0.014

[[record]]
compound = "COCc1ccc(N2CCN(C(=O)C(=O)Nc3ccc4[nH]c(=O)oc4c3)CC2)cc1F [Compound I-33]"
measuredendpoint = "IC50"
assayvalue = 0.059

[[record]]
compound = "Cc1ccc(N2CCN(C(=O)C(=O)Nc3ccc4[nH]c(=O)oc4c3)C[C@H]2C)cc1Cl [Compound I-39]"
measuredendpoint = "IC50"
assayvalue = 0.08

